Quick reference for inhibition among some compounds
# test target: Disintegrin and metalloproteinase domain-containing protein 10 (Homo sapiens)
# test: human ADAM10 inhibitors, confirmation, biochemical, QFRET, triplicate (AID 743208);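 note: 0% = DMSO wells and 100% = marimastat wells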
# assay context: ADAM10 QFRET peptide cleavage, EDANS fluorescence; at 6.95 µM; active compounds read high
The campaign covered roughly 2,100 compounds. About 30 (1%) were called active. The list is a sample of the results.
Give a bare numeral; the unit % is implied.

These recorded examples may help you get a feel for the data.
>>> test_result("CC(C)(C)c1ccc(S(=O)(=O)NCC2CCN(C(=O)C(=O)c3cc4ccccc4o3)CC2)cc1")
6.76
>>> test_result("N/C(Cc1ccc([N+](=O)[O-])cc1)=N\\OC(=O)COc1ccc2ccccc2c1")
3.81
>>> test_result("Cc1cc(C)cc(NC(=S)NCCc2c[nH]c3ccccc23)c1")
2.41
>>> test_result("CCCCCc1c(-c2ccc(OC)c(OC)c2)ncn1CCc1ccccc1OC")
5.03
>>> test_result("O=C(CSCc1ccc(Br)cc1)Nc1ccc(S(=O)(=O)N2CCCCCC2)cc1")
7.76
>>> test_result("CC(C)(C)OC(=O)N1CCC(NC(=O)c2[nH]cnc2C(=O)N[C@@H](Cc2ccccc2)C(=O)OCc2ccccc2)CC1")
9.68

Quick one: inhibition of O=C(NCCc1ccc(Cl)cc1Cl)c1cc([N+](=O)[O-])c[nH]c1=O ?
0

Quick one: inhibition of COc1ccc([C@H]2CC(=O)C=C(c3ccc(OC(F)(F)F)cc3)C2)cc1OC ?
1.68

Quick one: inhibition of COc1cccc(C2CC(c3ccccc3)=NN2S(=O)(=O)c2ccccc2)c1OC (centres undefined) ?
4.77
